Source listed as patent US20160200733A1.

Reported values of EC50 for individual entries
target of assay: mAChR hM4 (Homo sapiens, UniProt P08173)
Sequence (P08173 whole entry): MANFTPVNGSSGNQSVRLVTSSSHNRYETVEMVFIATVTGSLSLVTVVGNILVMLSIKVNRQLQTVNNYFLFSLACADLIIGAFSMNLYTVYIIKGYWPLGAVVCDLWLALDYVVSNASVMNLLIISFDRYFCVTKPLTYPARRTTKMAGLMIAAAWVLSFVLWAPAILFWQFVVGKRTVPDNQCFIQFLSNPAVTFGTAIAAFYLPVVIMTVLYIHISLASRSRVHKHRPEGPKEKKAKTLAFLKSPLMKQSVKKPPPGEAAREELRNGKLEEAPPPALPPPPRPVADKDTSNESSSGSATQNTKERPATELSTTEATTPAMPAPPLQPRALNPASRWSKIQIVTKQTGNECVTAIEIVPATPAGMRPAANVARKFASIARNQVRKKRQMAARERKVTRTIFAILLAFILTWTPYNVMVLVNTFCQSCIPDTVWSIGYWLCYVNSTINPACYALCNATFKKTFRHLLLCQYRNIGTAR
method: mAChR M4 cell-based functional assay (calcium flux, potentiation of EC20 acetylcholine response)
stated conditions: mAChR hM4 cell-line; >10,000 estimated for low potency compounds lacking a plateau

Example cases with answers are listed next.
>>> val("Cc1nc2sc(C(=O)NC3CC3)c(C3CC3)c2c(C)c1Cl")
"0.43 µM"
>>> val("Cc1cc(C)c2c(Br)c(C(=O)N3Cc4ccccc4C3)sc2n1")
"> 10 µM"
>>> val("COc1ccc(CNC(=O)c2sc3nc(C)cc(C)c3c2I)cc1")
"2.6 µM"

Any idea what its EC50 is? The molecule is Cc1nc2sc(C(=O)N3CCC(F)(F)CC3)c(-c3cnn(C)c3)c2c(C)c1Cl
> 10 µM

Any idea what its EC50 is? The molecule is Cc1nc2sc(C(=O)N3CCC(c4ccccc4)C3)c(C3CC3)c2c(C)c1Cl (stereo not drawn)
> 10 µM

Any idea what its EC50 is? The molecule is Cc1cc(C)c2c(C)c(C(=O)NCc3ccc4c(c3)CCO4)sc2n1
2.6 µM

Any idea what its EC50 is? The molecule is Cc1nc2sc(C(=O)NCc3ccc4c(c3)CCO4)c(Br)c2c(C)c1Cl
> 10 µM

Any idea what its EC50 is? The molecule is Cc1cc(C)c2cc(C(=O)NCc3cnn(-c4ccccc4)c3)sc2n1
> 10 µM

Any idea what its EC50 is? The molecule is Cc1cc(C)c2c(Br)c(C(=O)NCC3CC3)sc2n1
> 10 µM

Any idea what its EC50 is? The molecule is Cc1cnc2sc(C(=O)NC3CN(c4ccc(C(F)(F)F)nc4)C3)cc2c1C
> 10 µM

Any idea what its EC50 is? The molecule is Cc1nc2sc(C(=O)NCC3(C)COC3)c(Cl)c2c(C)c1Cl
> 10 µM

Any idea what its EC50 is? The molecule is Cc1cnc2sc(C(=O)NC3COC3)cc2c1C
> 10 µM

Any idea what its EC50 is? The molecule is Cc1cc(C)c2cc(C(=O)NCc3ccc(S(=O)(=O)C(F)(F)F)cc3)sc2n1
> 10 µM

Any idea what its EC50 is? The molecule is Cc1nc2sc(C(=O)N3CCC3)c(-c3cnn(C)c3)c2c(C)c1Cl
> 10 µM

Any idea what its EC50 is? The molecule is Cc1cc(C)c2c(Br)c(C(=O)NC3COC3)sc2n1
3.3 µM

Any idea what its EC50 is? The molecule is Cc1cc(C)c2c(C)c(C(=O)N[C@@H]3CCOC3)sc2n1
> 10 µM

Any idea what its EC50 is? The molecule is Cc1cc(C)c2c(-c3cnn(C)c3)c(C(=O)NCc3cnn(-c4ccccc4)c3)sc2n1
> 10 µM

Any idea what its EC50 is? The molecule is Cc1nc2sc(C(=O)NC3[C@H]4C[C@@H]3C4)c(Cl)c2c(C)c1Cl (stereo partly drawn)
> 10 µM

Any idea what its EC50 is? The molecule is Cc1cnc2sc(C(=O)NC3CN(c4cccnc4)C3)cc2c1C
0.58 µM

Any idea what its EC50 is? The molecule is Cc1nc2sc(C(=O)NC3CC(F)(F)C3)c(Cl)c2c(C)c1Cl
> 10 µM

Any idea what its EC50 is? The molecule is Cc1nc2sc(C(=O)NCC3CC3)c(Cl)c2c(C)c1Cl
> 10 µM

====

target of assay: mAChR hM4 (Homo sapiens, UniProt P08173)
Construct: expressed in transfected cells; host or cells: CHO-K1 (Chinese hamster ovary) cells
method: mAChR M4 cell-based functional assay (calcium flux, potentiation of EC20 acetylcholine response)
stated conditions: mAChR hM4 cell-line; >10,000 estimated for low potency compounds lacking a plateau
Protocol: In one aspect, the disclosed compounds potentiate the agonist response (e.g., acetylcholine) of mAChR M4. […] For example, activation of mAChR M4 activity can be determined by measurement of calcium flux in response to agonist, e.g. acetylcholine, in cells loaded with a Ca^2+-sensitive fluorescent dye (e.g., Fluo-4). In a further aspect, the calcium flux was measured as an increase in fluorescent static ratio. […]
pEC50: −log10 of the molar value.
measured property: pEC50

>>> val("Cc1nc2sc(C(=O)NCC3CC3)c(-c3cnn(C)c3)c2c(C)c1Cl [Compound 112]")
"< 5.00"
>>> val("Cc1nc2sc(C(=O)N3CCCN(C)CC3)c(-c3cnn(C)c3)c2c(C)c1Cl [Compound 113]")
"< 5.00"
>>> val("Cc1nc2sc(C(=O)NC3COC3)c(-c3ccsc3)c2c(C)c1Cl [Compound 117]")
"< 5.00"
>>> val("Cc1nc2sc(C(=O)NCC3CC3)c(Br)c2c(C)c1Cl [Compound 42]")
"< 5.00"

GET /values?readout=pEC50&system=mAChR hM4 (Homo sapiens, UniProt P08173)&item= Cc1nc2sc(C(=O)NC3CC3)c(-c3cnn(C)c3)c2c(C)c1Cl [Compound 90]
< 5.00

GET /values?readout=pEC50&system=mAChR hM4 (Homo sapiens, UniProt P08173)&item= Cc1nc2sc(C(=O)NC3COC3)c(-c3ccc4nccnc4c3)c2c(C)c1Cl [Compound 116]
< 5.00

GET /values?readout=pEC50&system=mAChR hM4 (Homo sapiens, UniProt P08173)&item= Cc1nc2sc(C(=O)NC3CN(c4cccnc4)C3)c(-c3cnn(C)c3)c2c(C)c1Cl [Compound 92]
< 5.00

GET /values?readout=pEC50&system=mAChR hM4 (Homo sapiens, UniProt P08173)&item= Cc1nc2sc(C(=O)N3CCC(c4ccccc4)C3)c(-c3cnn(C)c3)c2c(C)c1Cl (stereo not drawn) [Compound 86]
< 5.00

GET /values?readout=pEC50&system=mAChR hM4 (Homo sapiens, UniProt P08173)&item= Cc1nc2sc(C(=O)NC3CC3)c(Cl)c2c(C)c1Cl [Compound 118]
5.82

====

target of assay: mAChR hM4 (Homo sapiens, UniProt P08173)
method: mAChR M4 cell-based functional assay (calcium flux, potentiation of EC20 acetylcholine response)
stated conditions: mAChR hM4 cell-line; >10,000 estimated for low potency compounds lacking a plateau
Reported values of EC50 for individual entries

>>> val("Cc1cc(C)c2c(-c3ccccc3)c(C(=O)NCc3ccc(S(C)(=O)=O)cc3)sc2n1")
"> 10 µM"
>>> val("Cc1nc2sc(C(=O)NCc3ccc4c(c3)OCCO4)c(Br)c2c(C)c1Cl")
"> 10 µM"
>>> val("Cc1nc2sc(C(=O)N3CCN(C)CC3)c(-c3cnn(C)c3)c2c(C)c1Cl")
"> 10 µM"
>>> val("Cc1cc(C)c2c(Br)c(C(=O)NC3CCOCC3)sc2n1")
"> 10 µM"
>>> val("Cc1cc(C)c2c(C)c(C(=O)NCCN3CCOCC3)sc2n1")
"> 10 µM"

Any idea what its EC50 is? The compound is Cc1nc2sc(C(=O)NC3[C@H]4C[C@H]3C4)c(-c3cnn(C)c3)c2c(C)c1Cl (stereo partly drawn)
> 10 µM

Any idea what its EC50 is? The compound is Cc1nc2sc(C(=O)NC3CCOC3)c(Cl)c2c(C)c1Cl (stereo not drawn)
1.2 µM

Any idea what its EC50 is? The compound is Cc1nc2sc(C(=O)NC3(C)COC3)c(C3CC3)c2c(C)c1Cl
1.4 µM

Any idea what its EC50 is? The compound is COc1ccc(C(C)NC(=O)c2sc3nc(C)c(Cl)c(C)c3c2Br)cc1 (stereo not drawn)
> 10 µM

====

target of assay: mAChR hM4 (Homo sapiens)
method: mAChR M4 cell-based functional assay (calcium flux, potentiation of EC20 acetylcholine response)
stated conditions: mAChR hM4 cell-line; >10,000 estimated for low potency compounds lacking a plateau
measured property: EC50

Example cases with answers are listed next.
>>> val("Cc1nc2sc(C(=O)NC3CCOC3)c(-c3cnn(C)c3)c2c(C)c1Cl (stereo not drawn)")
"> 10 µM"
>>> val("Cc1cc(C)c2cc(C(=O)N3CCC(c4ccccc4)C3)sc2n1 (stereo not drawn)")
"> 10 µM"
>>> val("Cc1cc(C)c2c(C)c(C(=O)N3CCCC(F)(F)C3)sc2n1")
"> 10 µM"
>>> val("Cc1nc2sc(C(=O)NC3CC3)c(C)c2c(C)c1Cl")
"0.38 µM"
>>> val("COc1ccc(CNC(=O)c2sc3nc(C)cc(C)c3c2Br)cc1")
"> 10 µM"

Any idea what its EC50 is? The compound is Cc1nc2sc(C(=O)NC3(C)COC3)c(Cl)c2c(C)c1Cl
2.6 µM

Any idea what its EC50 is? The compound is Cc1cc(C)c2c(Br)c(C(=O)N3CCOCC3)sc2n1
> 10 µM

Any idea what its EC50 is? The compound is Cc1nc2sc(C(=O)N[C@H](C)C3CC3)c(-c3cnn(C)c3)c2c(C)c1Cl
> 10 µM

Any idea what its EC50 is? The compound is Cc1cc(C)c2c(Br)c(C(=O)NC3CCC3)sc2n1
> 10 µM
